- TARGET OF ASSAY: 3-keto-steroid reductase/17-beta-hydroxysteroid dehydrogenase 7 (Homo sapiens) (UniProt P56937)
- TEST CONDITIONS: HEK293, at 0.3 µM
- Description: Inhibition of human 17beta-HSD7 expressed in HEK293 cells assessed as inhibition of reduction of [14C]estrone into [14C]estradiol at 0.3 uM after 7 hrs
Label scheme for inhibition: lower than 30% is False, 30% and above is True.

Use these answered entries as a reference point.
- COMPOUND STRUCTURE STRING: "CCCCCCCCCCN(C(=O)c1c(F)c(F)c(F)c(F)c1F)[C@H]1CC[C@H]2[C@@H]3CC[C@H]4N(C)C(=O)CC[C@]4(C)[C@H]3CC[C@]12C"
  ASSIGNED CLASS: "False"
- COMPOUND STRUCTURE STRING: "CCCCCCCN(C(=O)c1c(F)cccc1C(F)(F)F)[C@H]1CC[C@H]2[C@@H]3CC[C@H]4N(C)C(=O)CC[C@]4(C)[C@H]3CC[C@]12C"
  ASSIGNED CLASS: "True"
- COMPOUND STRUCTURE STRING: "CN(C)C(=O)c1ccc2c(c1)CC[C@@H]1[C@@H]2CC[C@@]2(C)[C@H]1CC[C@@]21CCC(C)(C)C(=O)O1"
  ASSIGNED CLASS: "False"
- COMPOUND STRUCTURE STRING: "C[C@]12CCC(=O)C=C1CC[C@@H]1[C@@H]2[C@@H](O)C[C@]2(C=O)[C@@H](C(=O)CO)CC[C@@H]12"
  ASSIGNED CLASS: "False"

# input Does inhibition meet or surpass 30% for C[C@@]12C=CC[C@H]1[C@@H]1CCc3cc(O)ccc3[C@H]1CC2 ?
# output False

# input Does the compound CCCCCCCCCCCCN(C(=O)c1c(Cl)cccc1Cl)[C@H]1CC[C@H]2[C@@H]3CC[C@H]4N(C)C(=O)CC[C@]4(C)[C@H]3CC[C@]12C have recorded inhibition that is 30% or more?
# output False

# input API: above_or_equal(metric=inhibition, cutoff=30%) for item COc1ccc(N(C(=O)C(C)C)[C@H]2CC[C@H]3[C@@H]4CC[C@H]5N(C)C(=O)CC[C@]5(C)[C@H]4CC[C@]23C)cc1
# output True

###

- TARGET OF ASSAY: 3-keto-steroid reductase/17-beta-hydroxysteroid dehydrogenase 7 (Homo sapiens) (UniProt P56937)
- Sequence (whole entry): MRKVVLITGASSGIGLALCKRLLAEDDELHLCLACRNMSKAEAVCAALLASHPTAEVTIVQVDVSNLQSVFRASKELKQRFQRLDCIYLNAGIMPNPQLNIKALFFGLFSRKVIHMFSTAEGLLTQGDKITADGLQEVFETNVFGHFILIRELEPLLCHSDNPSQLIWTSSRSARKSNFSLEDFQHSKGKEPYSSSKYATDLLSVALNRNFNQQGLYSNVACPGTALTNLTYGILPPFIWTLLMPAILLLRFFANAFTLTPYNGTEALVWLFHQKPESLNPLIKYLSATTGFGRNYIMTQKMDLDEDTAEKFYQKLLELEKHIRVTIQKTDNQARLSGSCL
- TEST CONDITIONS: HEK293, at 0.3 µM
For each entry below, report its inhibition value.
Numbers only, in %.

Guide cases for inhibition, answers given:
- COMPOUND STRUCTURE STRING: "CCCCCCCN(C(=O)c1cc(F)ccc1F)[C@H]1CC[C@H]2[C@@H]3CC[C@H]4N(C)C(=O)CC[C@]4(C)[C@H]3CC[C@]12C"
  READOUT NAME: "inhibition"
  READOUT VALUE: 59
- COMPOUND STRUCTURE STRING: "CCCCCCCCCCN(C(=O)c1ccc(C#N)cc1)[C@H]1CC[C@H]2[C@@H]3CC[C@H]4N(C)C(=O)CC[C@]4(C)[C@H]3CC[C@]12C"
  READOUT NAME: "inhibition"
  READOUT VALUE: 49

Now examine the next entry.
# input Any idea what inhibition was measured for CC(C)C(=O)N(c1ccc([N+](=O)[O-])c(C(F)(F)F)c1)[C@H]1CC[C@H]2[C@@H]3CC[C@H]4N(C)C(=O)CC[C@]4(C)[C@H]3CC[C@]12C ?
# output 13.7

Numbers sourced from ChEMBL document CHEMBL1154295.
